Data credit: PubChem BioAssay (NCI)

Measured TGI accompanies every entry in the list below.
Tested on: OVCAR-5 ovarian
Test: NCI tumour cell line growth inhibition, 48 h
State the answer as a number, implicitly in µM.

Examples from the recorded data:
O=CN1CCN(C(=O)c2ccc(Cl)c(Cl)c2)C1=S: 32.4
O=C1c2ccc3c4c(ccc(c24)C(=O)N1CCCNCc1ccccc1Cl)C(=O)N(CCCNCc1ccccc1Cl)C3=O: 1.67
Cc1ccc(-c2nc3nc(-c4ccccc4)nc(N4CCNCC4)c3o2)cc1: 2.74
O=C(N/N=C/c1cc(Br)cc(Br)c1[O-])c1ccccc1O.O=C(N/N=C/c1cc(Br)cc(Br)c1[O-])c1ccccc1O.[Co+2]: 11.1

Q) Form entry - test system: OVCAR-5 ovarian; read-out: TGI; compound: COc1ccc(N(/C=C/C(=O)C(F)(F)F)CC(=O)c2ccc(F)cc2)cc1
A) 93.3

###

System: HCC-2998 colon
Experiment: NCI tumour cell line growth inhibition, 48 h
Quantity Name: TGI

Examples from the recorded data:
O=C1NOC(c2ccc(O)cc2)(c2ccc(O)cc2)c2ccccc21: > 100 µM
CC(Oc1ccc(OCC2CCCCC2)cc1)C(=O)NCc1ccco1 (centres undefined): > 100 µM
c1ccc(CSC2(SCc3ccccc3)CCCCC2)cc1: > 10 µM
CC(=O)OC(C)(C)CCC(=O)[C@](C)(O)[C@H]1[C@H](O)C[C@@]2(C)[C@@H]3CCc4c(cc(OC5OC(CO)C(O)C(O)C5O)c(O)c4C)C3(C)C(=O)C[C@]12C (some centres undefined): > 100 µM
Cc1[nH]c2ccc(F)cc2c1-c1nc2c3cccnc3c3ncccc3c2[nH]1: > 100 µM

Here is another compound to look at.
Q) Given the compound COc1cccc(NC(=O)CC(=O)N2N=C(N3c4ccccc4Sc4ccccc43)CC2c2ccccc2)c1 (centres undefined) , what is its reported TGI?
A) > 100 µM

###

System: NCI-H460 lung
Assay: NCI tumour cell line growth inhibition, 48 h
Quantity Name: TGI

Examples from the recorded data:
CCc1cccc(C)c1NC(=O)C1=C(C)NC(C)=C(C(=O)Nc2c(C)cccc2CC)C1c1ccc2c(c1)OCO2: 45.5 µM
COc1ccc(-c2c(C#N)c(S)n(NS(=O)(=O)c3ccccc3)c(=O)c2C#N)cc1: > 100 µM
c1ccc(CSC2(SCc3ccccc3)CCCCC2)cc1: > 10 µM
NC(=O)NC12CC3CC(CC(F)(C3)C1)C2: > 100 µM
Cn1c(N)nc(-c2ccc(Cl)cc2)c1SSc1c(-c2ccc(Cl)cc2)nc(N)n1C: 15.3 µM
COc1ccc(CC(=O)c2ccc(O)cc2O)cc1: > 100 µM
CN(C)CC1CCC2=C(C1=O)C(c1ccc(Cl)c(Cl)c1)C1=C(CCC(CN(C)C)C1=O)O2 (stereo unspecified): 24.6 µM
CCOc1ccc(NC(=O)C(=O)C(C(=O)c2ccc3ccccc3c2)C2OC(=O)c3ccccc32)cc1 (stereo unspecified): > 100 µM
CCOC(=O)c1nnc2c(C#N)c(-c3ccccc3)c(C)n2c1N: > 100 µM
CN(C)C(=O)c1cnc2oc3ccc(O)cc3c2c1-c1ccccc1: > 25 µM

Here is another compound to look at.
Q) Given the compound CCCCCCCCC/C=C1\CCC(CN(C)C)C1=O (stereo unspecified) , what is its reported TGI?
A) 12.5 µM

###

Test system: SN12C renal
Assay: NCI tumour cell line growth inhibition, 48 h
Measured GI50 accompanies every entry in the list below.

Examples from the recorded data:
CCc1ccc2c(c1)C(=O)c1c-2n(CCCN=[N+]=[N-])c(=O)c2cc(OC)c(OC)cc12: > 100 µM
C=C1CC[C@@H]2[C@](C)(COC(C)=O)[C@H](OC(C)=O)CC[C@@]2(C)[C@@H]1CC(Nc1ccc(S(=O)(=O)Nc2ccc(Cl)nn2)cc1)C1=CCOC1=O (stereo partly drawn): 1.25 µM

Here is another compound to look at.
Q) Given the compound COc1ccc(C2=CC(c3ccc(OC)cc3Br)N3C=CSC3=N2)cc1 (stereo not drawn) , what is its reported GI50?
A) 10 µM

###

Tested on: SF-539 CNS
Test: NCI tumour cell line growth inhibition, 48 h
Measured TGI accompanies every entry in the list below.
State the answer as a number, implicitly in µM.

O=C(c1ccc(Cl)cc1)N(C(=S)OCCOc1ccccc1)c1ccccc1: 34
Cn1c(N)nc(-c2ccc(Cl)cc2)c1SSc1c(-c2ccc(Cl)cc2)nc(N)n1C: 3.33
CN(C)Cc1cc(N=Nc2ccc(Cl)cc2)cc(CN(C)C)c1O: 23.2
CCCCCCCCCCCCCCCCCCOCC(O)COP(=O)(O)OCC1OC(n2ccc(N)nc2=O)C(O)C1O (stereo unspecified): 34.4
N#CSCc1ccc(Cl)c(CSC#N)c1: 16.6

Here is another compound to look at.
Q) Given the compound O=C1CC(NCc2ccccc2)c2c(Cl)sc(Cl)c21 (stereo unspecified) , what is its reported TGI?
A) 57.5

###

Measured GI50 accompanies every entry in the list below.
System: HL-60(TB) leukemia
Test: NCI tumour cell line growth inhibition, 48 h

Examples from the recorded data:
Cc1ccc(C(=O)NC2CCC2)cc1-c1ccc(C(=O)NCC2CC2)cc1: > 25 µM
Nc1c(C(=O)c2cccc(-c3cccnc3)c2)cnn1-c1ccc(F)cc1F: 5.76 µM

Q) Given the molecule CCc1ccc2c(c1)C(=O)c1c-2n(CCCN=[N+]=[N-])c(=O)c2cc(OC)c(OC)cc12 , what is its reported GI50?
A) > 100 µM

Q) Given the molecule COC(=N)c1c(N)[n+]([O-])c2ccc(F)cc2[n+]1[O-] , what is its reported GI50?
A) > 100 µM

Q) Given the molecule CN(C)CC1CCC2=C(C1=O)C(c1ccc(Cl)c(Cl)c1)C1=C(CCC(CN(C)C)C1=O)O2 (stereo not given) , what is its reported GI50?
A) 0.773 µM

Q) Given the molecule O=C1C(SCCO)=C(SCCO)C(=O)N1c1ccc(-c2ccccc2)cc1 , what is its reported GI50?
A) 18.7 µM

Q) Given the molecule Cc1cnc(CNC(=O)c2c(=O)c3ccc(N4CCCN(C)CC4)nc3n3c2sc2ccccc23)cn1 , what is its reported GI50?
A) 11.2 µM

Q) Given the molecule Cc1nn(-c2ccc(Cl)cc2)c2nc3c(nc12)C(=O)C(=O)c1ccccc1-3 , what is its reported GI50?
A) 4.32 µM

Q) Given the molecule COc1cnc2c(c1)C(=O)c1c-2n(CCCNC2=NCCS2)c(=O)c2cc(Cl)ccc12 , what is its reported GI50?
A) 0.656 µM

Q) Given the molecule O=c1c(O)c(-c2ccc(O)c(O)c2)oc2cc(O)cc(O)c12 , what is its reported GI50?
A) 10.9 µM

Q) Given the molecule O=[N+]([O-])c1ccc(N=Nc2ccc(O)c3ccccc23)cc1 , what is its reported GI50?
A) 5.39 µM

Q) Given the molecule NCCN.O=C([O-])CN1CCOCC1.[OH-].[Pt+4] , what is its reported GI50?
A) 15.8 µM

Q) Given the molecule C[C@]12CC[C@@H]3c4ccc(O)cc4CC[C@H]3[C@@H]1Cc1cnc(N)nc12 , what is its reported GI50?
A) 22.1 µM

Q) Given the molecule C=C1CC[C@@H]2[C@](C)(COC(C)=O)[C@H](OC(C)=O)CC[C@@]2(C)[C@@H]1CC(Nc1ccc(S(=O)(=O)Nc2ccc(Cl)nn2)cc1)C1=CCOC1=O (stereo not given in full) , what is its reported GI50?
A) 1.32 µM

Q) Given the molecule Nc1c(C(=O)c2cccc(C#CCO)c2)cnn1-c1ccc(F)cc1 , what is its reported GI50?
A) > 25 µM

###

System: OVCAR-3 ovarian
Test: NCI tumour cell line growth inhibition, 48 h; in the data active = GI50 below about 0.43 µM; inactive = the rest
Log the outcome using a class from 1 = active, 0 = inactive

Use these answered entries as a reference point.
Nc1c(C(=O)c2cccc(-c3cccnc3)c2)cnn1-c1ccc(F)cc1F: 0
O=c1c(O)c(-c2ccc(O)c(O)c2)oc2cc(O)cc(O)c12: 0
O=S(=O)(c1cccc2c(I)cccc12)N1CCCNCC1: 0
Nc1c(C(=O)c2cccc(C#CCO)c2)cnn1-c1ccc(F)cc1: 0
CC1=C(CCC(C)NCc2ccc(OCCCN3CCCCC3)cc2)C(C)(C)CCC1 (stereo unspecified): 0
Nc1ccccc1C#C/C=C\C#Cc1cccc(O)c1: 0
N#Cc1nc2c(S(=O)(=O)c3ccc(Cl)cc3)c(N)n(CCCN3CCOCC3)c2nc1C#N: 0
O=C1C(SCCO)=C(SCCO)C(=O)N1c1ccc(-c2ccccc2)cc1: 0
COC(=O)C1=C(C)NC(C)=C(C(=O)OCC(C)C)C1c1ccccc1[N+](=O)[O-] (stereo unspecified): 0
Cc1[nH]c2ccc(F)cc2c1-c1nc2c3cccnc3c3ncccc3c2[nH]1: 1

As a next step, examine the molecule that follows.
Q) Hi, do you know how N#CSCc1ccc(Cl)c(CSC#N)c1 came out in this test?
A) 1
